# TEST_DESCRIPTION: chemical genetic growth profiling, strain panel (AID 1159580);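 also: tested at 20 µM; growth read once vehicle control cultures reached saturation at 30 °C; 1 = growth at the plate median or of vehicle wells; lower values mean less growth of the strain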
# ASSAY_SETUP: S. cerevisiae deletion strains, growth OD, locus YLL041C, strain sdh2
Screen size: about 5,500 compounds; about 2,000 (36%) were called active. Not shown: some 18% with an inconclusive outcome. Rule as the data show it: active = normalized growth mostly below about 0.91 (no sharp cut-off); inconclusive = no clear call, values can overlap the other calls; inactive = mostly above about 0.92. Some of the results follow.
Can you answer with just one of these options? active, inactive

Take a look at these entries with their results.
1) CC(=O)[O][Hg][c]1ccccc1: active
2) C[C@]12CCC(=O)C=C1CCC1C2C(=O)C[C@@]2(C)C1CC[C@]2(O)C(=O)CO (stereo partly specified): inactive
3) COc1cc(NS(=O)(=O)c2ccc(N)cc2)ncn1: inactive
4) NC[C@H]1O[C@H](O[C@H]2C(O[C@@H]3O[C@H](CO)[C@@H](O)[C@H]3O)[C@@H](O)[C@H](N)C[C@@H]2N)[C@H](N)[C@@H](O)[C@@H]1O (stereo partly specified): inactive
5) COC(=O)C[C@H]1C(C)(C)[C@@H](O)[C@@H]2CC3=C4C=C(OC)O[C@@H](c5ccoc5)[C@]4(C)CCC3[C@@]1(C)C2=O (stereo partly specified): inactive

Q: Check the results log: what was the call for CC(=O)NS(=O)(=O)c1ccc(NC(=O)c2ccccc2C(=O)O)cc1 ?
Ans: inactive

Q: Check the results log: what was the call for Cc1cc(C(C)(C)C)c(O)c(C)c1CC1=NCCN1 ?
Ans: inactive

====

# TEST_DESCRIPTION: chemical genetic growth profiling, strain panel (AID 1159580);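 also: tested at 20 µM; growth read once vehicle control cultures reached saturation at 30 °C; 1 = growth at the plate median or of vehicle wells; lower values mean less growth of the strain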
# ASSAY_SETUP: S. cerevisiae deletion strains, growth OD, locus YHR013C, strain ard1
Hit rate of the full screen: of about 5,500 compounds, about 2,000 (36%) were called active. Another 18% or so got no clear call; they are omitted. Cut-off read from the data, not from the text of the source: active = normalized growth mostly below about 0.91 (no sharp cut-off); inconclusive = no clear call, values can overlap the other calls; inactive = mostly above about 0.92. The list shows a part of the results.
Can you answer with just one of these options? true (active), false (inactive)

1. COc1cc2c(cc1OC)[C@@]13CCN4CC5=CCOC6CC(=O)N2C1[C@H]6[C@H]5C[C@H]43 (some centres undefined): false
2. COc1c2occc2c(OC)c2c(=O)cc(C)oc12: false
3. c1ccc([C@H]2CN3CCSC3=N2)cc1: false
4. C#CC1(O)CCC2C3CCC4=CC(=O)CCC4(C)C3CCC21C (centres undefined): false
5. COc1c2ccoc2cc2oc(C)cc(=O)c12: false
6. C[C@]12CCC(=O)C=C1CCC1C2[C@@H](O)C[C@@]2(C)C1CC[C@]2(O)C(=O)COC(=O)CCC(=O)O (some centres undefined): false
7. CC(=O)Oc1cccc2c1C(=O)c1c(OC(C)=O)cc(C(=O)O)cc1C2=O: false
8. COc1cc(O)cc(OC)c1OC: false

Lab note: next compound to report on.
Q: Check the results log: what was the call for COC(=O)[C@]1(C)CC[C@]2(C)CC[C@]3(C)C4=CC=C5C(=CC(=O)C(O)=C5C)[C@]4(C)CC[C@@]3(C)[C@@H]2C1 ?
Ans: true

====

# TEST_DESCRIPTION: chemical genetic growth profiling, strain panel (AID 1159580);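 also: tested at 20 µM; growth read once vehicle control cultures reached saturation at 30 °C; 1 = growth at the plate median or of vehicle wells; lower values mean less growth of the strain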
# ASSAY_SETUP: S. cerevisiae deletion strains, growth OD, locus YKL190W, strain CNB1, active compounds read low
Screen size: about 5,500 compounds; about 2,000 (36%) were called active. Not shown: some 18% with an inconclusive outcome. Some of the results follow. Where a SMILES comes first, the peptide text is derived from it. Bridges are numbered along the chain shown (N, C = ends). [ ]: non-standard residue; d: D form. The star is where a group is joined. Octanoyl(6-Me) = CCC(C)CCCCC(=O)*; Dab = NCC[CH](N)C(=O)O
Attribute: normalized growth
Respond numerically, and do not add a unit to the figure.

1) COc1cc2c(cc1OC)-c1c(oc3c4c(ccc3c1=O)OC(C(C)C)C4)CO2 (stereo not given): 0.992
2) CC(=O)NO: 1
3) O=C(O)[C@H](O)[C@@](O)(Cc1ccc(O)cc1)C(=O)O: 1.02
4) CCC(C)CCCCC(=O)NC(CCN)C(=O)NC(C(=O)NC(CCN)C(=O)NC1CCNC(=O)C(C(C)O)NC(=O)C(CCN)NC(=O)C(CCN)NC(=O)C(CC(C)C)NC(=O)C(Cc2ccccc2)NC(=O)C(CCN)NC1=O)C(C)O (stereo not given) ({Octanoyl(6-Me)}-[Dab]T[Dab][Dab][Dab]FL[Dab][Dab]T; lactam 4-C; configuration not given here): 0.991

Lookup result for NS(=O)(=O)c1ccc(-n2ncc3ccccc3c2=O)cc1 ; measured normalized growth: 1
